- testDetails: soluble fraction after stress (log2 fold change); higher = more stays soluble; pooled small domains, quantitative proteomics
- recordedConditions: stress: 50 degC
soluble fraction (log2) values by entry

| constructSequence | soluble fraction (log2) |
| --- | --- |
| HMPAAKARTWQEATHAFQRDFLLETLRRARFNAADAADQLGLARPALYTTAKRLGLDLVAERQRWEAEAH | -0.173 |
| HMITNESEIERIVEAIISKNPESIAQYRSGITKVLGFLVGQVMKETKGRANPALVNRIIISKME | -0.281 |
| HMVIANADVRAKFSKGKDSFVKYYFKEKVLKDGFTEEVKNNIVQALFYLQIVTRIDGESGVLIIDY | -0.0492 |
| HMTPPLSKIRNMTPDQQRSSVIEARKKGYNLLQLEGLAKAQGATPADLLVLRNAWAQSEFDQKR | 0.149 |
| HMTGKVKWYDADKGFGFVTEDGGRDVYVRKSALPQGVETLKAGQRLEFGIAEGRRGPQALSVR | 0.0817 |
| HMEITTLTGVLGAGRLDSALAAALPQYSRARIQALISDAALRINGQVVADAGSKKMSGQTFELNIPAPVP | -0.31 |
| HMDGRSLSHATLEEIRIRAVQRVEAGESPEVVVKALGFSRPRIYEWLALYREGGLEALRAKPV | -0.505 |
| HMERYFVLVIYDIVDNKKRLKLSKYLLGYGIRVQKSAFEMMITKEKYNKLIKELPTYIEEGEDSIRLY | 0.132 |
| HMLTEEVEISLMDMTKPTQPATIKTTATIQKGATTVMPKQIKMPEGYEFYGNYKMDQPFELTMTFVVKKI | 0.115 |
| HMLYGRRFQVEGLNLERYLRAAADSGIPLKGARRFGRTLTGVAAEEHMAALEALARQGGWLFTPLEAVGAN | -0.22 |
| HMEDKKQVLYELITDKSYRPLRFKELAVLLMVPKALRGELKQTLDELIKEGKITVDSSSRYRAA | 0.133 |
| HMADYSGYLGKKGKVIAPLRPAGTALIDGERVDVVSFGDYIDKDSEIEVVKIEGSKLLVKKY | 0.141 |
| HMELQYSQEIEEAQKILENLGLYRGEIDGINGINTKSAIREFQRKSGLVVDGILGPNTTNALSKGSDAYIT | 0.094 |
| HMFWEGYLAARREQFLKDQQVLLGNEFRSNPDFWLEVASKEWAVVEERLSTGADVSEEVQETMGLDF | -2.16 |
| HMNEMEFAQRLRQFRKAKNLTQQELADRLGVSNKSVSRWESGSYPDVGTLVALARALGVTVDELLDPKA | 0.0532 |
| HMTGKTTLEYLNPLLERGIPVWDYLAKASGKAKEEVQEMVSKGLVPGAEAAKAIADYMGAEFAGSMA | 0.0316 |
| HMDAQLRVPDLTPYNYSELKENTSLYEGFTIEVVEERSTGDYAAGTVLDQDPKADTLIQDGDSTVIKLVIA | -0.12 |
| HMSETIVFGQQKAINTLSSEAGLSSAELNNYLKKRYQRPLFQLTVSEGADLIQGFQDGTLTKASITQYVSQ | -0.0548 |
| HMSISSSEAARSAVASSGGTVLGVSKASHGGYKAWAVRIQRADGSVVTGYVDRASGTVYDWVVNQAA | -0.3 |
| HMTKLLSALQADKFAKKLANDTNFGSNFARMGESAMDFTNRLVEELQRDEGKVANYMPYLTKLGF | 0.312 |
| HMVLVLPGEMIHVQVIDEGKEMGQGVGYLDDGTMVVVENGLRHIGRAIDVQVTKVLQTNAGRMIFGQPIL | -0.137 |
| HMNDAEEKAEAIEGVKNFMANMEKTDIDFKSKESVLLEQVEEIRKNYPVAQWPVIVKQLYNNIGRL | 0.159 |
| HMQMSWDAVKARLQDIVNNEDKTKPFNDEMLASKLKEQGIEIARRTVVKYRQQLGIPAARLRKK | -0.468 |
| HMLNPMILLTKGGENIRLDKFLSSHLSDLSRTQIQKMVKEGLVLVNGEPSKVGLKLDGSETIQYTLPK | -0.00634 |
| HMWMTAQDFRNSSLPWSATTSYNEGQSVRVVDGSNTYYYIAIVKTQPGQSPTTHPTSWREVDA | -0.99 |
| HMLTAPMPGIVRQVNVDTGQKVRKGQPLMVLEAMKMEHQIIAPQAGKIEAIHYNEGDRVEMGSVLISIF | -0.0961 |
| HMGHRQRRARARNRSMLEDIPGLGPKRRQQLLRQFGGLPQLMRAGVAELSQVPGISDSLARKIHAELHPES | -1.77 |
| HMGDTISVPAVRTLAYNKAMDILNAEGLKGIVADSVYDNHTAPGTVIEQNPKAGTIVKEGREVFLTIHA | 0.103 |
| HMVSTDPVHLFNLGTANRRAGRASEAITSYRKFMEAAPQHPQVPEARAYIHDMEVLLQERQKSEQAASQLS | 0.0843 |
| HMGNIALAIARFREMIAEDPNLQPVRLHLAMALMADHQDEAARGQLEKLRSDQLPDDIRKIVDDALAALR | -1.13 |
| HMETSLVIQIDGAVNSPGIYQVTPGTRIFEALELAGGVREDAQTEALNLALPVYDGQRISIPSSFA | 0.0796 |
| HMTIQNSILDEIPNIGASRKRAILEAFGSVHRLRKASPEMISAKVEGIGPEMAQAIHDYLVKHPAT | 0.19 |
| HMLVPWKSANLFKLVEPNFRLAERKIPMLPSADREKLQEIMSDMKDAIVDNDKMALMKLDEELTDFLFDFV | -1.22 |
